I'd be grateful if you could share measured log10(fluorescence lifetime) for these entries.
# Assay Details: solvent given as SMILES
# Condition Summary: in C1COCCO1
Values below are the log10 of the recorded fluorescence lifetime, with ns as the unit.

Measured log10(fluorescence lifetime), O=C1c2ccccc2-c2cccc(O)c21 : 0.53

Measured log10(fluorescence lifetime), Cc1ccc(-c2ccc(/C=C/c3cccn3C)cn2)nc1 : -0.23

Measured log10(fluorescence lifetime), c1ccc(-c2nc(-c3ccc(-c4nc(-c5ccccc5)c(-c5ccccc5)o4)cc3)oc2-c2ccccc2)cc1 : 0.01

Measured log10(fluorescence lifetime), Cc1oc2c(Cl)cc3c(C)cc(=O)oc3c2c1C : -1.10

Measured log10(fluorescence lifetime), O=C(O)COc1ccc2[nH]c3c(c2c1)CCCC3=O : -0.27

Measured log10(fluorescence lifetime), NS(=O)(=O)c1ccc(N2N=C(c3ccc(O)cc3)CC2c2ccc([N+](=O)[O-])cc2)cc1 (stereo unspecified) : 0.31
